Test system: KM12 colon
METHOD_NOTES: NCI-60 one-dose screen, 48 h (100 = growth as untreated, 0 = no growth, -100 = all killed)
EXPERIMENTAL_PARAMETERS: 10 µM unless noted
About 83,000 compounds went through this panel and 20% of them were active in at least one assay; those are over-represented in the sample as a whole.

{"columns": ["COMPOUND", "UNITS_TEXT", "growth"],
 "data": [
  ["COc1cc(-c2ccc3ncnc(NC(C)c4ccccc4)c3c2)cnc1OC (stereo not drawn)", "%", 75.3],
  ["O=[N+]([O-])c1ccc(O)c2ncccc12", "%", 22.2],
  ["NS(=O)(=O)c1cccc(Nc2nc(SCC(=O)c3ccc([N+](=O)[O-])cc3)nc3ccccc23)c1", "%", 38.4]
]}

====

Test system: COLO 205 colon
METHOD_NOTES: NCI-60 one-dose screen, 48 h
EXPERIMENTAL_PARAMETERS: 10 µM unless noted
The panel holds about 83,000 compounds, 20% with a hit somewhere; the sample as a whole holds those more often. Activity calls are given as the source filed them. Rule for the calls: active = growth percent below 10; inactive = the rest.
Classes used: active, inactive

{"columns": ["SMILES_INPUT", "ANSWER_LABEL"],
 "data": [
  ["Cc1nc(-c2cc3ccccc3oc2=O)ccc1C(=O)/C=C/c1ccc(N2CCOCC2)cc1", "inactive"],
  ["Cc1nc(-c2cc3ccccc3oc2=O)ccc1C(=O)/C=C/c1ccccn1", "inactive"],
  ["OC1CCN(CCCOc2c3ccccc3nc3c2oc2ccc(Cl)cc23)CC1", "active"]
]}

====

System: HOP-92 NSCLC
METHOD_NOTES: NCI-60 one-dose screen, 48 h (100 = growth as untreated, 0 = no growth, -100 = all killed)
EXPERIMENTAL_PARAMETERS: 10 µM unless noted
The panel holds about 83,000 compounds, 20% with a hit somewhere; the sample as a whole holds those more often.

{"columns": ["SMILES_INPUT", "growth (%)"],
 "data": [
  ["COc1cc(/C=C/C(=O)c2cc(OC)c(OC)c(OC)c2)ccc1OCc1ccccc1", 58.4],
  ["O=C1Nc2ccc(Cl)cc2/C1=C/c1ccc(OCC(=O)c2ccc(Br)cc2)cc1", 72],
  ["COc1ccc(/C=C2\\SC(=Nc3cc(C)on3)NC2=O)cc1", 94.4]
]}

====

Tested on: LOX IMVI melanoma
METHOD_NOTES: NCI-60 one-dose screen, 48 h
EXPERIMENTAL_PARAMETERS: 10 µM unless noted
The panel holds about 83,000 compounds, 20% with a hit somewhere; the sample as a whole holds those more often. Active and inactive are the calls of the source. Rule for the calls: active = growth percent below 10; inactive = the rest.
Classes used: t (active), f (inactive)

{"columns": ["COMPOUND", "TESTED_ON", "ANSWER_LABEL"],
 "data": [
  ["COc1cc(-c2nc3ccc(-c4nnc(SCC(=O)Nc5ccc(C(=O)/C=C/c6ccc(Cl)cc6)cc5)o4)cc3[nH]2)cc(OC)c1OC", "LOX IMVI melanoma", "t"],
  ["Cc1nc(-c2cc3ccccc3oc2=O)ccc1C(=O)/C=C/c1ccc(N2CCOCC2)cc1", "LOX IMVI melanoma", "f"],
  ["Cc1ccc(/C=C/c2nn3c(-c4ccco4)nnc3s2)cc1C", "LOX IMVI melanoma", "f"],
  ["Cc1ccc2ccc3ccc(C)nc3c2n1.Cc1ccc2ccc3ccc(C)nc3c2n1.Oc1c(Cl)cc(Cl)c2ccc(CN3CCCCC3)nc12.[Ru]", "LOX IMVI melanoma", "t"],
  ["O=C(CCCN1C(=O)/C(=C/c2ccccc2F)SC1=S)N1CCOCC1", "LOX IMVI melanoma", "t"],
  ["O=c1[nH]c2ccccc2cc1CSc1ccccc1Nc1nccc(-c2ccc(C(F)(F)F)cc2)n1", "LOX IMVI melanoma", "f"],
  ["O=C1Nc2ccc(Cl)cc2/C1=C/c1ccc(OCC(=O)c2ccc(Br)cc2)cc1", "LOX IMVI melanoma", "f"],
  ["COc1ccc(/C=C/C(=O)c2ccc(NC(=O)CSc3nnc(-c4ccc5nc(-c6ccc(Cl)cc6)[nH]c5c4)o3)cc2)cc1", "LOX IMVI melanoma", "t"],
  ["CCCSc1nc(Nc2ccc(/C(C)=N\\NC(N)=S)cc2)c(C#N)c(-c2ccc(OC)cc2)n1", "LOX IMVI melanoma", "f"],
  ["COc1cc(OC)c(C2SCC(=O)N2Nc2ncnc3ccccc23)cc1OC (stereo unspecified)", "LOX IMVI melanoma", "f"],
  ["CS(=O)(=O)c1ccc(-n2cc(/C=C/C(=O)c3ccc(NC(=O)CO[N+](=O)[O-])cc3)c(-c3ccc(Cl)cc3)n2)cc1", "LOX IMVI melanoma", "f"]
]}

====

Quick list: growth per entry.
Test system: TK-10 renal
METHOD_NOTES: NCI-60 one-dose screen, 48 h (100 = growth as untreated, 0 = no growth, -100 = all killed)
EXPERIMENTAL_PARAMETERS: 10 µM unless noted
About 83,000 compounds went through this panel and 20% of them were active in at least one assay; those are over-represented in the sample as a whole.
RESULT_TYPE: growth (%)

{"columns": ["COMPOUND", "RESULT_TYPE", "OBSERVED_RESULT"],
 "data": [
  ["CCOC(=O)c1sc(N)c(C(=O)OCC)c1C", "growth", 41.1],
  ["COc1ccc(/C=C2\\SC(=Nc3cc(C)on3)NC2=O)cc1", "growth", 106],
  ["Cc1cc(C(=O)Nc2sc3c(c2C(N)=O)CCC(=O)C3)ccc1OCCN1CCCCC1", "growth", 148],
  ["COc1ccc(C(=O)/C=C/c2ccc(OCc3ccc(Cl)cc3)c(OC)c2)cc1OC", "growth", 110],
  ["Cc1sc2nc(NCc3ccccc3Cl)[nH]c(=O)c2c1C", "growth", 112],
  ["C#Cc1nc(C2=C(C)C(OC(C)=O)/C(=N/OC(C)=O)C2)cs1 (stereo unspecified)", "growth", 203]
]}

====

System: OVCAR-4 ovarian
METHOD_NOTES: NCI-60 one-dose screen, 48 h (100 = growth as untreated, 0 = no growth, -100 = all killed)
EXPERIMENTAL_PARAMETERS: 10 µM unless noted
Experimental: Growth inhibition of the OVCAR-4 human tumor cell line is measured as a screen for anti-cancer activity. Cells are grown in 96 well plates and exposed to the test compound for 48 hours. Compounds are tested at a single concentration, which is 10^-5 M for most compounds. The reported endpoint is percent growth (GI% or GIPRCNT), where numbers from 0 - 100% represent growth inhibition, and numbers from -100% - 0 represent cell death. For example, a value of 40 represents 60% growth inhibition. […]
Compounds without any hit were thinned out: in the full panel of roughly 83,000, 20% have a hit.
Quick list: growth per entry.
RESULT_TYPE: growth (%)

{"columns": ["COMPOUND", "RESULT_TYPE", "UNITS_TEXT", "OBSERVED_RESULT"],
 "data": [
  ["COc1cc(OC)c(C2C(Cl)C(=O)N2Nc2ncnc3ccccc23)cc1OC (centres undefined)", "growth", "%", 104],
  ["CC(=O)c1ccc(Nc2nc(SC(C)C)nc(-c3ccccc3)c2C#N)cc1", "growth", "%", 94.9],
  ["COC(=O)c1ccc(NC(=S)N2CCc3ccc([N+](=O)[O-])cc3C2)cc1O", "growth", "%", 112],
  ["N=C1CC(=O)NN1C(=O)CSc1nc2sc3c(c2c(=O)n1-c1ccc(Cl)cc1)CCCC3", "growth", "%", 103]
]}

====

Test system: UACC-62 melanoma
METHOD_NOTES: NCI-60 one-dose screen, 48 h (100 = growth as untreated, 0 = no growth, -100 = all killed)
EXPERIMENTAL_PARAMETERS: 10 µM unless noted
Compounds without any hit were thinned out: in the full panel of roughly 83,000, 20% have a hit.
Quick list: growth per entry.

{"columns": ["COMPOUND", "growth (%)"],
 "data": [
  ["O=C(N/N=C/c1ccc[nH]1)c1[nH]c2ccc(Br)cc2c1-c1ccccc1", 13.4],
  ["CN(C)S(=O)(=O)c1oc(-c2ccccc2)nc1C#N", 97.9],
  ["CCN1C(=S)N(c2ccccc2)C2NC(=O)N(/N=C/C=C/c3ccccc3OC)C21 (stereo not given)", 81.7],
  ["C/C(=C(/c1ccc(Cl)cc1)c1ccc(OCCN)cc1)c1ccc(C)cc1", 88.6],
  ["CN(C)c1ccc(/C=C2\\Cc3c(F)ccc(Br)c3C2=O)cc1", 83.3]
]}

====

System: SK-MEL-5 melanoma
METHOD_NOTES: NCI-60 one-dose screen, 48 h
EXPERIMENTAL_PARAMETERS: 10 µM unless noted
The panel holds about 83,000 compounds, 20% with a hit somewhere; the sample as a whole holds those more often. Calls of active or inactive are those of the source. The calls were made as follows: active = growth percent below 10; inactive = the rest.
Classes used: Yes for active, No for inactive

{"columns": ["MOLECULE", "ANSWER_LABEL"],
 "data": [
  ["NS(=O)(=O)c1cccc(Nc2nc(SCC(=O)c3ccc(Br)cc3)nc3ccccc23)c1", "No"],
  ["COc1cc(/C=C/C(=O)c2ccc(F)cc2)ccc1Oc1nc(NCCO)nc(N2CCOCC2)n1", "No"],
  ["COc1cccc(OC)c1-c1nnn(C)c1C(=S)N1CCN(c2ccc([N+](=O)[O-])cc2Cl)CC1", "No"],
  ["O=C1NC(=C(Cl)Cl)/C(=N/S(=O)(=O)N2CCCCC2CC2(C(F)(F)F)N=N2)N1 (stereo not given)", "No"],
  ["CCCC(=O)NC(c1ccc(N(CC)CC)cc1)c1cc(C)c2cccnc2c1O (stereo not given)", "Yes"],
  ["COc1cc(/C=C/C(=O)c2ccc(Cl)cc2)ccc1Oc1nc(NCCO)nc(N2CCOCC2)n1", "No"],
  ["[Cl][Ru].c1ccc(-c2cc(-c3ccccn3)nc(-c3ccccn3)c2)cc1.c1ccc(-c2ccnc3c2ccc2c(-c4ccccc4)ccnc23)cc1", "Yes"],
  ["O=C(CSc1nc2sc3c(c2c(=O)n1-c1ccc(Cl)cc1)CCCC3)N/N=C/c1ccc(F)cc1", "No"],
  ["C/C(=N\\NC(N)=O)c1c(O)sc(=O)[nH]c1=O", "No"],
  ["COC(=O)C(C)NS(=O)(=O)/N=C1\\NC(=O)NC1=C(Cl)Cl (stereo not given)", "No"],
  ["CC(C)(C)OC(=O)N1C(=O)c2c(c3c4ccccc4[nH]c3c3ccc4ccccc4c23)C1=O", "No"],
  ["N#Cc1ccc(C(=O)CSc2nc(Nc3ccc(S(N)(=O)=O)cc3)c3ccccc3n2)cc1", "No"],
  ["COC1CCN(Cc2ccc3c(NNC(=O)c4cnccn4)nc4cc(F)ccc4n23)C1 (stereo not given)", "No"],
  ["C#Cc1nc(C2=C(C)C(=O)/C(=N/OC(C)=O)C2)cs1", "No"],
  ["Cn1cc(-c2cc(N)n3nc(-c4cn(C)c5ccc(F)cc45)cc3n2)c2cc(F)ccc21", "No"]
]}
